measured_target: UniProt P03372
Sequence (P03372 1-595): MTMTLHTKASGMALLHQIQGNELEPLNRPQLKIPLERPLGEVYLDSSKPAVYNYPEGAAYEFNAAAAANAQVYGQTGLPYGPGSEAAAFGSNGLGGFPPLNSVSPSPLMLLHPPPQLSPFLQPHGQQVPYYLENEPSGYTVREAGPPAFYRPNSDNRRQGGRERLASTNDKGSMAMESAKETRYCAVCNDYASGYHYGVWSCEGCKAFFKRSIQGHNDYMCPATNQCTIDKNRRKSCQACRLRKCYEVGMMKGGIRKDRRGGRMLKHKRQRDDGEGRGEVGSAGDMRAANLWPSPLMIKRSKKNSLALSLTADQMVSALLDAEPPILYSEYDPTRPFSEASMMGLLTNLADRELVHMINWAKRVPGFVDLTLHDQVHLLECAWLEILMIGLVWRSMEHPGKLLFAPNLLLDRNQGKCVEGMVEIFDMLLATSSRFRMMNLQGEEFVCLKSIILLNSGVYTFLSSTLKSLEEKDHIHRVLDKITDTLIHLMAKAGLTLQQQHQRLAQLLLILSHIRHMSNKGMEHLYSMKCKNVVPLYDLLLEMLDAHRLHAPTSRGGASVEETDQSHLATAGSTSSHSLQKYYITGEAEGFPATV
procedure_summary: Endogenous PI-9 mRNA induction in MCF-7 cells (qRT-PCR)
Type: cell-based
Design: endogenous in cells
assay_conditions: 10 nM E2, read-out: IC50 for inhibition of E2-ERα induction of endogenous PI-9 mRNA (Endog. PI-9)
observed_property: IC50 (nM)
Numeric answer only, unit nM assumed.

QUERY: Form: Entry = Cn1c(=S)c2[nH]c(SCCCC(=O)c3ccc(F)cc3)nc2n(C)c1=O | System = UniProt P03372 | IC50 = ____
RESULT: 200
